Assay Method Text: qHTS assay to identify small molecule antagonists of the thyroid receptor (TR) signaling pathway (AID 743065); also: nearly all actives have a fitted effect of over 55% in size
Reported Conditions: GH3.TRE-Luc, T3-stimulated luciferase inhibition, 23.5 h; series mostly up to 70.3 µM
Inconclusive results are not listed. Calls of active or inactive are those of the source. Calls follow the shape of the dose curve; as a rule, active = well fitted inhibition curve with a large enough effect in the repeat runs; inconclusive = weak or mixed curves; inactive = no such curve, though single readings can be large or run the other way.
The reply should name one outcome from active, inactive

Example results:
C=C(C)C(=O)OC
inactive
CC(C)COC(=O)/C=C/c1ccccc1
inactive
Cc1nc(C)nc(N2C[C@@H](C)N(c3ccnc([C@@H](C)O)n3)[C@@H](C)C2)n1
inactive
O=C(O)C(=O)Nc1cccc(-c2nn[nH]n2)c1
inactive
CCCOC(=O)CCCCC(=O)OCCC
inactive
CCCOCCOCCOCCO
inactive

--- query ---
Req: Just curious, what result did `SCCSCCS` get here?
Resp: inactive

* * *

Assay Method Text: qHTS assay for small molecule disruptors of the mitochondrial membrane potential (AID 720635)
Reported Conditions: HepG2 mitochondrial membrane potential, Mito-MPS dye ratio; series mostly up to 83.2 µM
Inconclusive results are not listed. The source made the active and inactive calls. Calls come from the whole dose curve; as a rule, active = well fitted inhibition curve with a large enough effect in the signal ratio in the repeat runs; inconclusive = weak or mixed curves, or effect the other way; inactive = flat fitted curve, though single readings scatter; the % refers to the signal ratio.
// classify into active, inactive

Solved entries:
CCN(CCO)c1cccc(C)c1
inactive
CCC(O)C(C)(C)C (stereo unspecified)
inactive
C=CCOCC(CO)(COCC=C)COCC=C
inactive
CCOC(=O)CCc1ccccc1
inactive
CC(C)COC(=O)/C=C/c1ccccc1
inactive

Req: Look up the recorded call for `O=C1CC[C@H](C(=O)N2CCCCC2)N1` in this test.
Resp: inactive

Req: Given `Cc1nc([N+](=O)[O-])cn1-c1ccc([N+](=O)[O-])cc1` , state the outcome it received in this test.
Resp: inactive

Req: Hi team, can someone confirm the assay call for `CCN1CN(CC)CN(CC)C1` ?
Resp: inactive

Req: Entry `O=C(Oc1ccccc1C(=O)O)c1ccccc1O` : call = ?
Resp: inactive

Req: Just curious, what result did `C=C(C)C(=O)OC` get here?
Resp: inactive

Req: Outcome? `CCCCCCCCCCCCCCCC(=O)NCCO`
Resp: inactive

Req: # fetch the recorded call for `O=c1[nH]c(=O)c2ccccc2o1` here
Resp: inactive

Req: # fetch the recorded call for `Cc1cc(O)c2c(c1)C(=O)c1cccc(O)c1C2=O` here
Resp: active

Req: Please state the recorded outcome for this compound: `Nc1ccc(/C=C/c2ccc(N)cc2S(=O)(=O)O)c(S(=O)(=O)O)c1`
Resp: inactive

Req: What classification did `C=C[C@@H](C)CCC=C(C)C` end up with in this test?
Resp: inactive

Req: Returns: the outcome recorded for `C=COCCOCCOC=C` in this assay.
Resp: inactive

* * *

Assay Method Text: A CellTox Green Cytotoxicity Assay to monitor cytotoxicity in HepG2 cells - 16 hour (AID 1224876); also: nearly all actives have a fitted effect of over 45% in size
Reported Conditions: CellTox Green fluorescence; series mostly up to 76.8 µM
Inconclusive results are not listed. Activity calls are given as the source filed them. The call rests on the fitted dose curve; in most records, active means well fitted activation curve with a large enough effect in the repeat runs; inconclusive means weak or mixed curves; inactive means flat fitted curve, though single readings scatter.
Measurement Name: cytotoxicity increase

CC(C)(CO)[C@@H](O)C(=O)NCCCO
inactive
COc1ccc(NS(=O)(=O)c2ccc(N)cc2)nn1
inactive
C=C[C@@H](C)CCC=C(C)C
inactive
CN[C@@H]1[C@@H](O)[C@@H](O[C@@H]2[C@H](O)[C@H](O[C@H]3OC(CN)=CC[C@H]3N)[C@@H](N)C[C@H]2N)OCC1(C)O (some centres undefined)
inactive
O=CN1CCOCC1
inactive

Req: Entry `C1=C\CC/C=C\CC/1` : reported cytotoxicity increase = ?
Resp: inactive

Req: Would you mind telling me what cytotoxicity increase value was observed for C=CC(C)(O)CC/C=C(\C)CC (centres undefined) ?
Resp: inactive

Req: I would be grateful if you could share the reported cytotoxicity increase for `CCCCC[Si](OCC)(OCC)OCC` .
Resp: inactive

Req: I would be grateful if you could share the reported cytotoxicity increase for `F[Si-2](F)(F)(F)(F)F` .
Resp: inactive

Req: Need cytotoxicity increase of `CC(=O)N1CCN(c2ccc(O)cc2)CC1` , thanks.
Resp: inactive
